Every entry's value here was drawn from paper PMC11413853.

Can you tell me Papp at 2 h for the items I'm about to list?
System: P-gp
Construct: host or cells: MDR1-MDCK cell monolayers
Assay: MDCK-MDR1 P-gp efflux and permeability
Type: in vitro ADME
Set-up: dose or concentration left out as unconfirmed
Settings: dog, MDCK-MDR1
Hi! Could you send only the number? It should be in ×10⁻⁶ cm/s, unit omitted.

Query block: Can you look up Papp at 2 h on P-gp for Cn1ccc(-c2ccc(Cc3cc(C(=O)NC4CCOCC4)nc4ccn(C)c34)cc2)n1 ?
Result block: 12.8

Query block: Same question, Cn1ccc2nc(C(=O)NC3CCOCC3)cc(Cc3ccc(-c4cc[nH]n4)cc3)c21 this time
Result block: 2

Query block: Please do the same for Cn1ccc(-c2ccc(Cc3cc(C(=O)NC4CCOCC4)nc4ccsc34)cc2)n1 as well.
Result block: 26.8

----------
Assay: IV/PO pharmacokinetics, dog
Format: in vivo, dog (beagle or mongrel)
Details: plasma, 1 mg/kg, dose iv/po 1/5 mg/kg, read-out: CLp
OUTCOME_MEASURE: clearance (mL/min/kg)
Write the answer as a number in mL/min/kg, unit excluded.

Query block: # get_value(readout='clearance', item= Cn1ccc(-c2ccc(Cc3cc(C(=O)NC4CCOCC4)nc4ccn(C)c34)cc2)n1 [compound 11] )
Result block: 2.4

----------
Assay: Plasma protein binding, cyno
Type: in vitro ADME
Conditions: cynomolgus monkey, pH 7.4, read-out: fu,plasma cyno
OUTCOME_MEASURE: fraction unbound at 6 h, 5 µM
Please give only the number in your answer, with no unit.

Query block: Name the reported fraction unbound at 6 h, 5 µM value associated with the compound Cn1ccc(-c2ccc(Cc3cc(C(=O)NC4CCOCC4)nc4ccn(C)c34)cc2)n1 [compound 11]
Result block: 0.026

Query block: Next compound up: Cn1ccc(-c2ccc(Cc3cc(C(=O)NC4CCOCC4)nc4ccsc34)cc2)n1 [compound 12]
Result block: 0.009

----------
Test system: Potassium Channel hERG
Assay: Eurofins radioligand binding
Conditions: human, specific binding
OUTCOME_MEASURE: inhibition at 10 µM (%)
Kindly provide the numeric value in % only, without the unit symbol.

Query block: Fill in the blank: the reported inhibition at 10 µM of Cn1ccc(-c2ccc(Cc3cc(C(=O)NC4CCOCC4)nc4ccn(C)c34)cc2)n1 is ____.
Result block: 11

----------
Assay: IV/PO pharmacokinetics, dog
Format: in vivo, dog (beagle or mongrel)
Conditions: plasma, 1 mg/kg, dose iv/po 1/5 mg/kg, read-out: elimination t1/2 (converted)
OUTCOME_MEASURE: half-life (h)
# output: bare number, implied unit h

Query block: Recorded half-life of Cn1ccc(-c2ccc(Cc3cc(C(=O)NC4CCOCC4)nc4ccn(C)c34)cc2)n1 , please.
Result block: 12.8
